Task for the reader: assign each of the following compounds its reported growth inhibition.
Assay: NCI Yeast Anticancer Drug Screen. Data for the cln2 rad14 strain (AID 165);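 note: 0% = growth equal to vehicle treated cultures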
Conditions: S. cerevisiae cln2 rad14 strain, hits give high values; at 50.0 µM unless noted
The panel holds about 79,000 compounds, 15% with a hit somewhere; the sample as a whole holds those more often.
Kindly answer with a numeric value in %, unit omitted.

The recorded growth inhibition for O=[N+]([O-])c1ccccc1/C=C/c1ccccn1 is 20

The recorded growth inhibition for CC(C)(C)OC(=O)NCCCCC(N)C(N)=O (stereo not drawn) is 15.8

The recorded growth inhibition for Cc1ccc2sccc(=O)c2c1 is -12.8

The recorded growth inhibition for Nc1ccc2c(c1)C(=O)c1cc(Cl)cc(Cl)c1-2 is -44

The recorded growth inhibition for CCOC(=O)c1cc(C(O)C(O)C(O)CO)oc1C (stereo not drawn) is -13.1

The recorded growth inhibition for CCCCCC=C(c1cc(Cl)c(OC)c(C(N)=O)c1)c1cc(Cl)c(OC)c(C(N)=O)c1 is -92.9

The recorded growth inhibition for CNc1ccc(C=C2C=CC=C2)cc1 is 5.2

The recorded growth inhibition for C/C(CCc1ccccc1)=N\NC(N)=S is -35.1

The recorded growth inhibition for CCCCCCCCCCCCSCCSCCCCCCCCCCCC is -26.8

The recorded growth inhibition for O=c1c2cncnc2sc2nc3ccccc3n12 is 11.9

The recorded growth inhibition for C/C(=N\NC(=O)c1ccncc1)c1cc(Cl)ccc1Cl is 8.15

The recorded growth inhibition for COc1ccc(C2=Nc3ccccc3N=C(SC)C2)cc1 is 6.75

The recorded growth inhibition for O=C(OCc1ccccc1)ON1C(=O)C2C3C=CC(C3)C2C1=O (stereo not drawn) is -9.1

----------
Experiment: NCI Yeast Anticancer Drug Screen. Data for the mec2-1 strain (AID 157)
Settings: S. cerevisiae mec2-1 strain, hits give high values; at 50.0 µM unless noted
Compounds without any hit were thinned out: in the full panel of roughly 79,000, 15% have a hit.
Task for the reader: assign each of the following compounds its reported growth inhibition.
Kindly answer with a numeric value in %, unit omitted.

The recorded growth inhibition for [CH3][Sn]([CH3])([S]P(=S)(c1ccccc1)c1ccccc1)[S]P(=S)(c1ccccc1)c1ccccc1 is 31.7

The recorded growth inhibition for N#Cc1cccc2c1Nc1ccccc1S2 is -21.8

The recorded growth inhibition for C/C(=N\NC(N)=O)C1(O)CCCCC1 is -26.7

The recorded growth inhibition for CC(=O)c1ccccc1OB(F)F is -11.2

The recorded growth inhibition for COC1OC(COS(=O)(=O)c2ccc(C)cc2)C(OS(=O)(=O)c2ccc(C)cc2)C(OS(=O)(=O)c2ccc(C)cc2)C1OS(=O)(=O)c1ccc(C)cc1 (stereo unspecified) is -16.5

The recorded growth inhibition for CC1=C(C)CC2(CCCCC2=O)S(=O)C1 (stereo unspecified) is -28.8

The recorded growth inhibition for O=C(CCN1C(=O)c2ccccc2C1=O)Nc1c(I)cc(I)c(C(=O)O)c1I is -11.7

The recorded growth inhibition for C[Si](C)(C)Cn1cccc1 is 8.9

The recorded growth inhibition for CN(O)C(=O)CCC(NC(=O)CCC(N)C(=O)O)C(=O)NCC(=O)O (stereo unspecified) is -9.3

The recorded growth inhibition for CC1CN=C(N(C(=O)Nc2ccccc2)C2CCCCC2)S1 (stereo unspecified) is -8.9

The recorded growth inhibition for COC(=O)C(CCSC)NC(=O)C1CSC(C)(C)N1C=O (stereo unspecified) is 0.2
